System: Beet Armyworm (Spodoptera exigua)
test.description: Beet armyworm test (BAW)
Assay type: in vivo
measurement.setup: 120 h
Procedure: The compounds in Tables 1 and 2 above were tested for insecticidal activity using the following testing procedures. LC50 values, based on the results of these tests and calculated according to dosage-mortality curves, are expressed in Table 3. Beet Armyworm (Spodoptera exigua) Test compounds were diluted in a 50-50 acetone-water solution. […] Mortality of the larvae was recorded five days later. […]
LC50 BAW values by entry
Field format: number, assumed %, no unit text.

Reported LC50 BAW ( "Clc1ccc(N=C(OCc2cccc(Oc3ccccc3)c2)C2CC2)cc1" ) = 0.03

Record "CC(C)C(=Nc1cc(F)cc(C(F)(F)F)c1)OCc1cccc(Oc2ccccc2)c1" , field LC50 BAW: 0.0004

According to the records, this molecule "FC(F)(F)Oc1ccc(N=C(OCc2cccc(Oc3ccccc3)c2)C2CC2)cc1" displays LC50 BAW of 0.005

Reported LC50 BAW of "Fc1ccc(N=C(OCc2cccc(Oc3ccccc3)c2)C2CC2)cc1" : 0.1

GET /value?item= "FC(F)(F)c1ccc(N=C(OCc2cccc(Oc3ccccc3)c2)C2CC2)cc1" &field=LC50 BAW returns 0.02

---

Test system: Maize weevil [Sitophilus Zeamais (Motschulsky)]
test.description: Maize weevil test (MW)
Type: in vivo
measurement.setup: adult weevils, treated corn seeds, 48 hours, percent in solution
measured.property: LC50 MW (%)
Your answer should be a plain number; it is taken to be in %.

CC(C)C(=Nc1ccc(F)c(Cl)c1)OCc1cccc(Oc2ccc(F)cc2)n1 :: 0.0075

Tested on Maize weevil [Sitophilus Zeamais (Motschulsky)], the item "CC(C)C(=Nc1ccc(F)c(Cl)c1F)OCc1ccc(F)c(Oc2ccccc2)c1" showed LC50 MW equal to 0.0051

---

Tested on: Maize weevil [Sitophilus Zeamais (Motschulsky)]
test.description: Maize weevil test (MW)
Type: in vivo
measurement.setup: adult weevils, treated corn seeds, 48 hours, percent in solution
Collected LC50 MW values appear next to each entry.

Solved entries (count: 3):
COC(=O)c1ccc(N=C(OCc2cccc(Oc3ccccc3)c2)C(C)C)cc1 :: > 0.01%
COc1ccc(N=C(OCc2ccc(F)c(Oc3ccccc3)c2)C(C)C)cc1F :: > 0.01%
CC(C)C(=Nc1cccc(C(F)(F)F)c1)OCc1ccnc(Oc2ccc(Cl)cc2)c1 :: > 0.01%

LC50 MW in this record for "CC(C)C(=Nc1ccc(OC(F)(F)F)cc1)OCc1ccc(F)c(Oc2ccccc2)c1" : 0.0053%

Sample "CC(C)C(=Nc1ccc2c(c1)OC(C)(C)O2)OCc1ccc(F)c(Oc2ccc(F)cc2)c1" ; LC50 MW observed: > 0.01%

Kindly note the recorded LC50 MW for "CC(C)C(=Nc1ccc(F)c(Br)c1)OCc1ccc(F)c(Oc2ccc(F)cc2)c1" , which is 0.004%

Record summary for "CC(C)C(=Nc1ccc(C(C)C)cc1)OCc1cccc(Oc2ccccc2)c1" : reported LC50 MW = > 0.01%

Entry "CC(C)C(=Nc1ccc(C(F)(F)F)cc1)OCc1ccc(F)c(Oc2ccccc2)c1" ; LC50 MW = 0.0053%

"CC(C)C(=Nc1ccc2c(c1)OCO2)OCc1cccc(Oc2ccc(Cl)cn2)c1" has a reported LC50 MW of > 0.01%

"CC(C)C(=Nc1cccc(C(F)(F)F)c1)OCc1cc(Oc2ccccc2)ccn1" has a reported LC50 MW of > 0.01%

---

Tested on: Maize weevil [Sitophilus Zeamais (Motschulsky)]
test.description: Maize weevil test (MW)
Format: in vivo
measurement.setup: adult weevils, treated corn seeds, 48 hours, percent in solution
measured.property: LC50 MW

The molecule CC(C)C(=Nc1ccc(F)c(Cl)c1)OCc1cccc(Oc2ccc(F)c(F)c2)n1 [Compound 531] , tested on Maize weevil [Sitophilus Zeamais (Motschulsky)], showed LC50 MW of > 0.01%

The value of LC50 MW recorded for CCOc1ccc(N=C(OCc2ccc(F)c(Oc3ccccc3)c2)C(C)C)cc1Cl [Compound 370] when tested on Maize weevil [Sitophilus Zeamais (Motschulsky)] reads > 0.01%

Measured LC50 MW for this entry c1ccc(Oc2cccc(COC(=Nc3ccc4c(c3)OCO4)C3CC3)c2)cc1 [Compound 177] on Maize weevil [Sitophilus Zeamais (Motschulsky)]: 0.01%

Short answer on Maize weevil [Sitophilus Zeamais (Motschulsky)] for CC(C)C(=Nc1ccc(C(F)(F)F)cc1)OCc1cccc(Cc2ccccc2)c1 [Compound 535] , LC50 MW: > 0.01%

Lab note: molecule CC(C)C(=Nc1ccc(F)c(Cl)c1)OCc1cc(Oc2ccc(F)cc2)ccc1F [Compound 230] tested on Maize weevil [Sitophilus Zeamais (Motschulsky)]; recorded LC50 MW was 0.038%

Query CC(C)C(=Nc1ccc(F)c(Cl)c1)OCc1cccc(Oc2ccc(Br)cc2)c1 [Compound 238] on Maize weevil [Sitophilus Zeamais (Motschulsky)]; LC50 MW returned: > 0.01%

Bench note, Maize weevil [Sitophilus Zeamais (Motschulsky)]: Fc1ccc(N=C(OCc2cccc(Oc3ccccc3)c2)C(F)(F)C(F)(F)F)cc1Cl [Compound 117] , LC50 MW reads > 0.01%

Tested on Maize weevil [Sitophilus Zeamais (Motschulsky)]: CC(C)C(=Nc1cc(F)c(Cl)cc1Cl)OCc1ccc(F)c(Oc2ccc(F)cc2)c1 [Compound 292] . Observed LC50 MW: > 0.01%

Maize weevil [Sitophilus Zeamais (Motschulsky)] data for CC(C)C(=Nc1ccc(C(F)(F)F)c(Br)c1)OCc1ccc(F)c(Oc2ccc(Cl)cc2)c1 [Compound 377] ; its LC50 MW: > 0.01%

Entry CC(C)C(=Nc1ccc(F)c(Cl)c1)OCc1cccc(Oc2cccc(F)c2)c1 [Compound 125] , tested on Maize weevil [Sitophilus Zeamais (Motschulsky)], has a reported LC50 MW of > 0.01%

GET /values?item= CC(C)C(=Nc1ccc(Br)c(C(F)(F)F)c1)OCc1ccc(F)c(Oc2ccc(F)cc2)c1 [Compound 364] &system= Maize weevil [Sitophilus Zeamais (Motschulsky)] returns LC50 MW: > 0.01%

Bench note, Maize weevil [Sitophilus Zeamais (Motschulsky)]: entry C=C(C)C(=Nc1ccc(Cl)cc1)OCc1cccc(Oc2ccccc2)c1 [Compound 6] , its LC50 MW = > 0.01%

Record CC(C)(C)C(=Nc1ccc(F)c(F)c1)OCc1coc(Cc2ccccc2)c1 [Compound 525] / Maize weevil [Sitophilus Zeamais (Motschulsky)], LC50 MW recorded as > 0.01%

Item: CC(C)C(=Nc1ccccc1)OCc1cccc(Oc2ccccc2)c1 [Compound 43] | System: Maize weevil [Sitophilus Zeamais (Motschulsky)] | LC50 MW: > 0.01%

---

Test system: Maize weevil [Sitophilus Zeamais (Motschulsky)]
test.description: Maize weevil test (MW)
Format: in vivo
measurement.setup: adult weevils, treated corn seeds, 48 hours, percent in solution
measured.property: LC50 MW (%)
Field format: number, assumed %, no unit text.

CC(C)C(=Nc1ccc(Cl)c(C(F)(F)F)c1)OCc1ccc(F)c(Oc2ccc(F)cc2)c1 [Compound 340] :: 0.0069

With those in mind, consider the next compound.
Maize weevil [Sitophilus Zeamais (Motschulsky)] assay, compound C#CCc1c(F)c(F)c(COC(=Nc2cccc(C(F)(F)F)c2)C(C)C)c(F)c1F [Compound 546] , recorded LC50 MW = 0.0032

---

Test system: Maize weevil [Sitophilus Zeamais (Motschulsky)]
test.description: Maize weevil test (MW)
Type: in vivo
measurement.setup: adult weevils, treated corn seeds, 48 hours, percent in solution
Quick list: LC50 MW per entry.

Here's what some known entries look like.
CC(C)C(=Nc1ccc(I)cc1)OCc1ccc(F)c(Oc2ccc(F)cc2)c1 :: > 0.01%
COc1ccc(N=C(OCc2ccc(F)c(Oc3ccc(F)cc3)c2)C(C)C)cc1OC :: > 0.01%
CC(C)C(=Nc1ccc2c(c1)OCO2)OCc1cccc(Oc2ccc(F)cc2)c1 :: 0.009%

Shifting focus to the compound that follows.
Please fill in: LC50 MW reported for "CC(C)C(=Nc1ccc(OCC(F)(F)F)c(Cl)c1)OCc1ccc(F)c(Oc2ccccc2)c1" = > 0.01%

---

System: Maize weevil [Sitophilus Zeamais (Motschulsky)]
test.description: Maize weevil test (MW)
Format: in vivo
measurement.setup: adult weevils, treated corn seeds, 48 hours, percent in solution
Property: LC50 MW; scope: individual compounds

# example entries with known answers
CC(C)C(=Nc1ccc(OCC(F)(F)F)c(F)c1)OCc1cccc(Oc2ccc(Cl)cc2)c1 [Compound 429] :: > 0.01%
Cc1cccc(N=C(OCc2cccc(Oc3ccc(F)cc3)c2)C(C)C)c1 [Compound 405] :: > 0.01%

Next:
Consider CC(C)C(=Nc1ccccc1Cl)OCc1cccc(Oc2ccccc2)c1 [Compound 17] . Its measured LC50 MW is > 0.01%

---

Tested on: Maize weevil [Sitophilus Zeamais (Motschulsky)]
test.description: Maize weevil test (MW)
Format: in vivo
measurement.setup: adult weevils, treated corn seeds, 48 hours, percent in solution
Method: The compounds in Tables 1 and 2 above were tested for insecticidal activity using the following testing procedures. LC50 values, based on the results of these tests and calculated according to dosage-mortality curves, are expressed in Table 3. Maize weevil [Sitophilus Zeamais (Motschulsky)] Test compounds were diluted in a 50:50 acetone:water solution. […] Mortality was recorded after 48 hours. […]
Listing: LC50 MW of selected compounds
Answer with a number only, understood to be in %.

Reference set (3 entries):
CC(C)C(=Nc1ccc(Cl)c(Cl)c1)OCc1cccc(Oc2ccccc2)c1 [Compound 14] :: 0.01
CC(C)C(=Nc1ccc(F)c(Cl)c1)OCc1cccc(Oc2ccc(F)c(F)c2)c1 [Compound 217] :: 0.0084
C#CCc1c(F)c(F)c(COC(=Nc2ccc(F)c(Cl)c2)C(C)C)c(F)c1F [Compound 520] :: 0.0042

Kindly note the recorded LC50 MW for CC(C)C(=Nc1ccc2c(c1)OC(F)(F)O2)OCc1cccc(Oc2ccccc2)c1 [Compound 245] , which is 0.006

Attribution: patent US5089623A
